experiment-notes: Oral bioavailability in rat
Format: ADME, organism-based
condition-context: in vivo
observed-property: bioavailability

• CC(C)(c1cc(-c2cccc(-c3ccc(CO)[n+]([O-])c3)c2)c2ncccc2c1)S(C)(=O)=O = 10%
• CC(C)(CC(=O)O)c1ccc(-c2cccc(-c3cc(C(C)(C)S(C)(=O)=O)cc4cccnc34)c2)cc1 = 100%
• Cc1ccc(-c2cccc(-c3cc(C(C)(C)S(C)(=O)=O)cc4cccnc34)c2)c[n+]1[O-] = 83%
• CC(C)(c1cc(-c2cccc(-c3cc(C(=O)NC4CC4)c[n+]([O-])c3)c2)c2ncccc2c1)S(C)(=O)=O = 0%
• CC(C)(c1cc(-c2cccc(-c3ccc(C(=O)O)cc3)c2)c2ncccc2c1)S(C)(=O)=O = 54%
• CC(C)(c1cc(-c2cccc(-c3ccc(C(=O)NC4CC4)[n+]([O-])c3)c2)c2ncccc2c1)S(C)(=O)=O = 100%
• CC(C)(c1cc(-c2cccc(-c3ccc(CC(=O)O)cc3)c2)c2ncccc2c1)S(C)(=O)=O = 60%
• CC(C)NC(=O)Nc1ccc(-c2cccc(-c3cc(C(C)(C)S(C)(=O)=O)cc4cccnc34)c2)c[n+]1[O-] = 11%
• CC(C)(c1cc(-c2cccc(-c3ccc[n+]([O-])c3)c2)c2ncccc2c1)S(C)(=O)=O = 76%
• CC(C)(O)c1cc(-c2cccc(-c3cc(C(C)(C)S(C)(=O)=O)cc4cccnc34)c2)c[n+]([O-])c1 = 0%

###

experiment-notes: Half life in rat
Type: ADME, organism-based
condition-context: in vivo
Entries whose half-life is below 2 h take Satisfied; entries at or above 2 h take Not satisfied.

- CC(=O)Nc1ccc(-c2cccc(-c3cc(C(C)(C)S(C)(=O)=O)cc4cccnc34)c2)c[n+]1[O-]: Satisfied
- CC(C)(c1cc(-c2cccc(-c3ccc(C(=O)NC4CC4)[n+]([O-])c3)c2)c2ncccc2c1)S(C)(=O)=O: Not satisfied
- CC(C)(O)c1ccc(-c2cccc(-c3cc(C(C)(C)S(C)(=O)=O)cc4cccnc34)c2)c[n+]1[O-]: Satisfied
- Cc1ccc(-c2cccc(-c3cc(C(C)(C)S(C)(=O)=O)cc4cccnc34)c2)c[n+]1[O-]: Satisfied

###

experiment-notes: Oral bioavailability in rat
Type: ADME, organism-based
condition-context: in vivo
Entries and their bioavailability
observed-property: bioavailability

* CC(C)(c1cc(-c2cccc(-c3ccc(C4CC4C(=O)O)cc3)c2)c2ncccc2c1)S(C)(=O)=O (single isomer, unassigned) | 100%
* CC(=O)Nc1ccc(-c2cccc(-c3cc(C(C)(C)S(C)(=O)=O)cc4cccnc34)c2)c[n+]1[O-] | 47%
* CC(C)(c1cc(-c2cccc(-c3ccc(CCC(=O)O)cc3)c2)c2ncccc2c1)S(C)(=O)=O | 24%
* CC(C)(O)c1ccc(-c2cccc(-c3cc(C(C)(C)S(C)(=O)=O)cc4cccnc34)c2)c[n+]1[O-] | 100%

###

experiment-notes: Cmax in squirrel monkey at 3 mg/kg
Type: ADME, organism-based, Saimiri sciureus
Parameters: dose 3 mg/kg
condition-context: in vivo
observed-property: Cmax (µM)

* CC(C)(O)c1ccc(-c2cccc(-c3cc(C(C)(C)S(C)(=O)=O)cc4cccnc34)c2)c[n+]1[O-] | 41
